All figures here come from PubChem BioAssay (NCATS).

# assay remarks: Quantitative highthroughput screen to assess conditional lethalithy of P12 Ichikawa cells grown in RPMI1640 with dialyzed fetal bovine serum (RPMI+ds) (AID 1963880); further: nearly all actives have a fitted effect of over 35% in size;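 on viability: 100% = DMSO wells and 0% = empty wells on each plate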
# condition set: ATP luminescence, 48 h; P12-Ichikawa viability; series mostly up to 45.8 µM
Records with an inconclusive call do not appear. Activity calls are given as the source filed them. The call rests on the fitted dose curve; in most records, active means well fitted cell-killing curve with a large enough effect; inconclusive means small, poorly fitted or top-dose-only effect; inactive means flat fitted curve, though single readings scatter.
Log the outcome using a class from active, inactive

Would you please look over these solved cases?
# compound, label
rows = [
    ("CC1CNc2c(cccc2S(=O)(=O)N[C@@H](CCCN=C(N)N)C(=O)N2CC[C@@H](C)C[C@@H]2C(=O)O)C1 (some centres undefined)", "inactive"),
    ("O=C1c2c(O)ccc(O)c2C(=O)c2c(NCCNCCO)ccc(NCCNCCO)c21", "active"),
    ("CN(C)C/C=C/C(=O)Nc1ccc(C(=O)Nc2cccc(Nc3ncc(Cl)c(-c4c[nH]c5ccccc45)n3)c2)cc1", "active"),
    ("NS(=O)(=O)c1ccc(NC2=CC(=O)c3ccccc3C2=O)cc1", "inactive"),
    ("Nc1nccc(-c2ccc3noc(-c4ccc(Cl)cc4)c3c2)n1", "inactive"),
]

Which result was noted for this compound in the test: C[C@@H](NCCCc1cccc(C(F)(F)F)c1)c1cccc2ccccc12 inactive

====

# assay remarks: Viability qHTS for spleen associated tyrosine kinase inhibitor (SYKi) drug resistant MV4-11 cells (AID 1963824); further: nearly all actives have a fitted effect of over 35% in size; further: potency means the concentration at half of the fitted maximal effect
# condition set: SYKi-resistant MV4-11 viability, CellTiter-Glo, 72 h; series mostly up to 45 µM
Results filed as inconclusive are left out. Calls of active or inactive are those of the source. The call rests on the fitted dose curve; in most records, active means well fitted cell-killing curve with a large enough effect; inconclusive means small, poorly fitted or top-dose-only effect, or effect the other way; inactive means no such curve, though single readings can be large or run the other way.
recorded metric: Potency

# compound, Potency
records = [
    ("Cc1ccc(S(=O)(=O)c2ccc([N+](=O)[O-])o2)cc1", "411 nM (active)"),
    ("CC(C)CC(=O)NCCn1cc(C(=O)O)c(=O)cc1C(O)c1ccccc1 (stereo unspecified)", "inactive"),
    ("CN1CCN(S(=O)(=O)c2ccc(-c3cnc(N)c(C(=O)Nc4cccnc4)n3)cc2)CC1", "796 nM (active)"),
    ("CC(C)(C)NCC(O)COc1cccc2c1CCCC2=O (stereo unspecified)", "inactive"),
    ("COc1ccc(Cl)cc1[C@@]1(F)C(=O)Nc2cc(C(F)(F)F)ccc21", "6510 nM (active)"),
]

Please give Potency, item by item, for the list that follows.
1. CC1=C(COC2OC(CO)C(O)C(O)C2O)C(C(CO)C(=O)O)CC1 (stereo unspecified)
2. O=S(=O)(Nc1ccc(C(O)(C(F)(F)F)C(F)(F)F)cc1)c1cccs1
3. CC1(CO)CCCC2(C)C1C(OC(=O)c1ccccc1)CC1C(=O)OCC12O (stereo unspecified)
4. O=C(NCC(O)CO)c1ccncc1Nc1ccc(I)cc1F (stereo unspecified)
5. CC1(CCC(=O)O)C(=O)C=CC23CC4CC(OC4(C)C2O)C13 (stereo unspecified)
6. CO[C@@H]1CC(OC2CCC3(C)C(CCC45CCC(C6=CC(=O)OC6)C(C)(CCC43)C5=O)C2)O[C@H](C)[C@@H]1O[C@@H]1O[C@H](CO[C@@H]2O[C@H](CO)[C@@H](O)[C@H](O)[C@H]2O)[C@@H](O)[C@H](O)[C@H]1O (stereo partly specified)
7. O=C(O)C(Cc1cc(I)c(O)c(I)c1)c1ccccc1 (stereo unspecified)
8. CN1CCN(C(=O)c2ccc3cc(CCNc4ncnc5ccc(C#N)cc45)ccc3c2)CC1

inactive
16400 nM (active)
inactive
164 nM (active)
inactive
778 nM (active)
inactive
461 nM (active)

====

# assay remarks: Viability qHTS for spleen associated tyrosine kinase inhibitor (SYKi) naive MV4-11 cells (AID 1963823); further: nearly all actives have a fitted effect of over 40% in size
# condition set: MV4-11 AML viability, CellTiter-Glo luminescence, 72 h; series mostly up to 45 µM
Records with an inconclusive call do not appear. Active and inactive are the calls of the source. Calls follow the shape of the dose curve; as a rule, active = well fitted cell-killing curve with a large enough effect; inconclusive = small, poorly fitted or top-dose-only effect, or effect the other way; inactive = no such curve, though single readings can be large or run the other way.
Outcomes you can answer with include only these: class 1 (active), class 0 (inactive)

Previously resolved entries follow.
# molecule, label
data = [
    ("CC1CCC2C(C(=O)O)=CC3(O)CC(C)(C)CC123 (stereo not given)", "class 0"),
    ("O=C(O)Cc1ccc2oc(-c3ccc(NC(=O)/C=C/c4ccc(Br)cc4)c(F)c3)nc2c1", "class 0"),
    ("Oc1ccc(-c2ccc(-c3cc(Nc4cccc(CNC5CC5)c4)n[nH]3)cc2)c(O)c1", "class 1"),
    ("CC(=O)c1c(C)cccc1O[C@@H]1O[C@H](CO)[C@@H](O)[C@H](O)[C@H]1O", "class 0"),
    ("CC(O)(CC(=O)O)CC(=O)O[C@@H]1[C@@H](O)[C@H](OCCc2ccccc2)O[C@H](CO)[C@H]1O (stereo not given in full)", "class 0"),
    ("CCOc1ccccc1OCC1CNCCO1 (stereo not given)", "class 0"),
]

Assay result, entry CC(C)Oc1ccc(-c2nn([C@@H](C)c3oc4ccc(F)cc4c(=O)c3-c3cccc(F)c3)c3ncnc(N)c23)cc1F — outcome? class 1

Which outcome was assigned to CC(C)C[C@H](NC(=O)[C@H](Cc1ccccc1)NC(=O)c1cnccn1)B(O)O in this test? class 1

What did this assay record as the result for NC[C@H](O)c1ccc(O)c(O)c1 ? class 0

For CCCCCCCCCCCCCCCCN , which call appears in the assay record? class 0

====

# assay remarks: Quantitative highthroughput screen to assess conditional lethalithy of P12 Ichikawa cells grown in Human Plasma-Like Medium with dialyzed fetal bovine serum (HPLM+ds) (AID 1963879); further: nearly all actives have a fitted effect of over 35% in size; further: potency means the concentration at half of the fitted maximal effect
# condition set: ATP luminescence, 48 h; viability; series mostly up to 45.8 µM
Inconclusive results are not listed. The source made the active and inactive calls. Calls come from the whole dose curve; as a rule, active = well fitted cell-killing curve with a large enough effect; inconclusive = small, poorly fitted or top-dose-only effect; inactive = flat fitted curve, though single readings scatter.
recorded metric: Potency

Solved cases below.
# molecule, assay result
measured = [
    ("COC(=O)[C@@H]1CC2=CC(=O)CC[C@]2(C)[C@@]23O[C@@H]2C[C@@]2(C)[C@H](CC[C@@]24CCC(=O)O4)[C@@H]13", "inactive"),
    ("COC(=O)Nc1cc(Nc2cc(NC3CC3)c3ncc(C#N)n3n2)c(Cl)c(N2CCN(C)CC2)c1", "20900 nM (active)"),
    ("CCCCCCCCCCCC1=C(O)C(=O)C=C(O)C1=O", "2090 nM (active)"),
    ("Nc1ccc(-c2ccc3ncc4ccc(=O)n(-c5cccc(C(F)(F)F)c5)c4c3c2)cn1", "148 nM (active)"),
    ("O=C(C=Cc1c(C(=O)O)[nH]c2cc(Cl)cc(Cl)c12)Nc1ccccc1", "inactive"),
    ("CNC(=O)c1cc(Oc2ccc(NC(=O)Nc3cc(C(C)(C)C)nn3-c3ccc4ncccc4c3)c(F)c2)ccn1", "inactive"),
    ("NC(=O)c1ccc(N(C(N)=O)c2c(F)cccc2F)nc1-c1ccc(F)cc1F", "inactive"),
    ("c1ccc2[nH]c(-c3cscn3)nc2c1", "9350 nM (active)"),
    ("CC(=O)N(O)CCCCCNC(=O)CCC(=O)N(O)CCCCCNC(=O)CCC(=O)N(O)CCCCCN", "4.7 nM (active)"),
    ("CN1CCC(=C2c3ccccc3C=Cc3ccccc32)CC1", "inactive"),
]

Report Potency for every entry below.
1. O=C(O)C1(Cc2cccc(Nc3nccs3)n2)CCC(Oc2cccc(Cl)c2F)CC1 (configuration not stated)
2. OCCn1cc(-c2ccc3c(c2)CCC3=NO)c(-c2ccncc2)n1
3. CCCCCN(CCC12CC3CC(CC(C3)C1)C2)C(=O)NCCCc1ccncc1
4. COc1c(OCCCN2CCOCC2)ccc2c3n(c(=NC(=O)c4cnc(N)nc4)nc12)CCN3
5. Cc1nnc(C(=O)NC(C)(C)c2nc(C(=O)NCc3ccc(F)cc3)c(O)c(=O)n2C)o1
6. CC1=C(CO)C(=O)O[C@@H]([C@@H](C)[C@H]2CC[C@H]3[C@@H]4C[C@H]5O[C@]56[C@@H](O)C=CC(=O)[C@]6(C)[C@@H]4CC[C@]23C)C1
7. COC(=O)C=CC(=O)OC

1. 2350 nM (active)
2. inactive
3. inactive
4. 182 nM (active)
5. inactive
6. 296 nM (active)
7. 935 nM (active)

====

# assay remarks: Viability qHTS for spleen associated tyrosine kinase inhibitor (SYKi) drug resistant MV4-11 cells (AID 1963824); further: nearly all actives have a fitted effect of over 35% in size
# condition set: SYKi-resistant MV4-11 viability, CellTiter-Glo, 72 h; series mostly up to 45 µM
Records with an inconclusive call do not appear. Calls of active or inactive are those of the source. Calls follow the shape of the dose curve; as a rule, active = well fitted cell-killing curve with a large enough effect; inconclusive = small, poorly fitted or top-dose-only effect, or effect the other way; inactive = no such curve, though single readings can be large or run the other way.
Respond using exactly one of the listed classes: label 1 (active), label 0 (inactive)

# compound, label
data = [
    ("C=CC(=O)N1CCN(C(=O)CNc2cc(-c3ccccc3Cl)c(Cl)cc2OC)CC1", "label 1"),
]

How was Nc1nc2ccc([N+](=O)[O-])cc2s1 classified in this test? label 1

Can you look up the reported call for c1ccc(Cn2c(-c3ccc(OCC(C4CCNCC4)n4c(-c5ccccc5)nc5ccccc54)cc3)nc3ccccc32)cc1 (stereo unspecified) for me? label 1

For this compound, state the assay outcome: CC(C)CC(=O)O[C@@H]1OC=C(CO[C@@H]2O[C@H](CO[C@@H]3O[C@H](CO)[C@@H](O)[C@H](O)[C@H]3O)[C@@H](O)[C@H](O)[C@H]2O)[C@H]2C[C@H](O)[C@@H](CO)[C@@H]12 label 0

What is the recorded call for this compound in the test? C[C@@H]1C[C@H](O)/C=C/[C@H](O)[C@@H](O)CC(=O)O1 label 0
